target: HLA-A*33:01; assay: IEDB peptide-MHC binding, purified MHC/competitive/radioactivity; filed as Kd, often an IC50 or EC50 that approximates it; bounds were set here for any values at or beyond the usual limits of such assays; details: source organism: SARS coronavirus Tor2
Please go through the items and note down their Kd.

Data request, read-out Kd, for GLVASIKNFK
≥ 20.6 µM

What value of measured Kd is listed for ALRANSAVK ?
≥ 77.7 µM

Item SQIQLSLLK has what recorded Kd?
≥ 77.7 µM

Tell me the measured Kd of ALNHTKKWK , please.
≥ 77.7 µM

Using the record for STGNYNYKY , report its Kd.
≥ 77.7 µM

Query: Kd; subject: AAISDYDYY
≥ 77.7 µM

Report Kd for ALLRALRLTK please.
≥ 70 µM

====

target: HLA-A*31:01; assay: IEDB peptide-MHC binding, purified MHC/competitive/radioactivity; filed as Kd, often an IC50 or EC50 that approximates it; bounds were set here for any values at or beyond the usual limits of such assays; settings: source organism: Vaccinia virus WR
What Kd was measured for each of the following?

What reported Kd corresponds to SAVVDNKLK on HLA-A*31:01?
≥ 58.9 µM

# get_value(readout= Kd, system= HLA-A*31:01) for YTVEFDRDK
≥ 33.4 µM

Which Kd is reported with HLA-A*31:01 for this entry: IVNNQESNKY ?
≥ 52.9 µM
